test: Human pharmacokinetic study, Example 5 Arm I (single dose, replicated crossover); assay type: in vivo; conditions: both sexes, human, in vivo, oral, 3 film-coated Formulation C5-12 tablets, single dose, non-fasting, Regimen A (C5-12): three film-coated Formulation C5-12 tablets, N = 172, read-out: AUCt, geometric mean
readout-label: AUC(0-t)

smiles-data	readout-label	measured
Cc1cnc(C(=O)N[C@H]2CCCCC/C=C\[C@@H]3C[C@@]3(C(=O)NS(=O)(=O)C3CC3)NC(=O)[C@@H]3C[C@@H](Oc4nc5ccccc5c5ccccc45)CN3C2=O)cn1	AUC(0-t)	4460 ng·h/mL

###

assay: Human pharmacokinetic study, Example 4 Arm II (single dose, crossover); format: in vivo; details: both sexes, human, blood, oral, 3 Formulation C5-12 tablets, Example 4 Arm II, single dose, non-fasting; Regimen E (C5-12): three Formulation C5-12 tablets in the morning; N = 13; read-out: Tmax
// reported Tmax for each item listed
readout-label: Tmax (h)

compound	measured
COc1c(-c2ccc3cc(NS(C)(=O)=O)ccc3c2)cc(-n2ccc(=O)[nH]c2=O)cc1C(C)(C)C	9.7
CC(C)c1nc(CN(C)C(=O)N[C@H](C(=O)N[C@@H](Cc2ccccc2)C[C@H](O)[C@H](Cc2ccccc2)NC(=O)OCc2cncs2)C(C)C)cs1 [Compound 3, reference compound]	4.9
Cc1cnc(C(=O)N[C@H]2CCCCC/C=C\[C@@H]3C[C@@]3(C(=O)NS(=O)(=O)C3CC3)NC(=O)[C@@H]3C[C@@H](Oc4nc5ccccc5c5ccccc45)CN3C2=O)cn1	5.7

###

assay: Human pharmacokinetic study, Example 5 Arm I (single dose, replicated crossover); assay type: in vivo; conditions: both sexes, human, in vivo, oral, single dose, non-fasting, Regimen B (reference regimen): two Triple Tablets + one Single Tablet morning, one Single Tablet evening, N = 171, read-out: AUCt, geometric mean
readout-label: AUC(0-t)

smiles-data	measured
Cc1cnc(C(=O)N[C@H]2CCCCC/C=C\[C@@H]3C[C@@]3(C(=O)NS(=O)(=O)C3CC3)NC(=O)[C@@H]3C[C@@H](Oc4nc5ccccc5c5ccccc45)CN3C2=O)cn1	5470 ng·h/mL

###

Assay: Sink Conditions dissolution testing of Formulation C5-12
Assay type: physicochemical
Conditions: 6 hours, pH 6.8 buffer, 15 mM cTAB, N = 6
Description: The release profiles of Formulation C5-12 of Example 1 were evaluated in a Sink Conditions dissolution study. The study was conducted in 900 mL of dissolution medium using a standard USP dissolution Apparatus 2 (paddle) operating at 100 RPM at 37±0.5° C. The dissolution medium was a 0.05 M sodium phosphate buffer pH 6.8 with 15 mM cTAB as a surfactant.
Quick list: % Released per entry.

compound	% Released
Cc1cnc(C(=O)N[C@H]2CCCCC/C=C\[C@@H]3C[C@@]3(C(=O)NS(=O)(=O)C3CC3)NC(=O)[C@@H]3C[C@@H](Oc4nc5ccccc5c5ccccc45)CN3C2=O)cn1	99%
COc1c(-c2ccc3cc(NS(C)(=O)=O)ccc3c2)cc(-n2ccc(=O)[nH]c2=O)cc1C(C)(C)C	18%
CC(C)c1nc(CN(C)C(=O)N[C@H](C(=O)N[C@@H](Cc2ccccc2)C[C@H](O)[C@H](Cc2ccccc2)NC(=O)OCc2cncs2)C(C)C)cs1 [Compound 3, reference compound]	100%
COC(=O)N[C@H](C(=O)N1CCC[C@H]1C(=O)Nc1ccc([C@@H]2CC[C@@H](c3ccc(NC(=O)[C@@H]4CCCN4C(=O)[C@@H](NC(=O)OC)C(C)C)cc3)N2c2ccc(C(C)(C)C)cc2)cc1)C(C)C	99%

Origin of values: patent US10105365B2
